Attribution: patent US20150183871A1

# target-desc: T1, recombinant purified human RGM A (human, UniProt Q96B86 48-424, limits assumed)
# T1 construct: Bought recombinant protein (R&D Systems); also called hRGM A; hRGMA
# T1 sequence: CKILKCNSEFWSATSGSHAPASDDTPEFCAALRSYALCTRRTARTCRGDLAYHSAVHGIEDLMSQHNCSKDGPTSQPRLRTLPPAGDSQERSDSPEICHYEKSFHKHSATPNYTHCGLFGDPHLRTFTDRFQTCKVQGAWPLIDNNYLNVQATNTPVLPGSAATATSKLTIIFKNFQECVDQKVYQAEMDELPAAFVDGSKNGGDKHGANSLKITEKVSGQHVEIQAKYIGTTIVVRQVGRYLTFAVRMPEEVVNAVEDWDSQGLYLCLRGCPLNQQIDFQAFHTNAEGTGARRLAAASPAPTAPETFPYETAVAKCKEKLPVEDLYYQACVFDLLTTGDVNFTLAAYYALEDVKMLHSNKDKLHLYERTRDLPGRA
# test-description: SPR (Biacore 3000), antibody captured by anti-human IgG Fc, hRGMA in solution, 25 °C
measured-quantity: Kd (nM)
Give bare numbers, in nM.

| binder | Kd (nM) |
| --- | --- |
| humanized antibody h5F9.21 (antibody, V domains shown) VH: EVQLVESGGGVVQPGRSLRLSCAASGFTFSNYGMNWIRQAPGKGLEWIGMIYYDSSEKHYADSVKGRFTISRDNSKNTLYLQMNSLRAEDTAVYYCAKGTTPDYWGQGTMVTVSS VL: DVVLTQSPLSLPVTLGQPASISCRSSQSLEYSDGYTFLEWFLQKPGQSPQLLIYEVSNRFSGVPDRFSGSGSGTDFTLKISRVEAEDVGVYYCFQATHDPLTFGQGTKLEIKR | 7.59 |
| chimeric 5F9 (antibody, V domains shown, also called chimeric human-rat 5F9; biotinylated chimeric 5F9) VH: EVQLVESGGGLVQPGSSLKLSCVASGFTFSNYGMNWIRQAPKKGLEWIGMIYYDSSEKHYADSVKGRFTISRDNSKNTLYLEMNSLRSEDTAIYYCAKGTTPDYWGQGVMVTVSS VL: DVVLTQTPVSLSVTLGDQASMSCRSSQSLEYSDGYTFLEWFLQKPGQSPQLLIYEVSNRFSGVPDRFIGSGSGTDFTLKISRVEPEDLGVYYCFQATHDPLTFGSGTKLEIKR | 3.09 |

Batch: Kd for all items listed.
1. humanized antibody h5F9.25 (antibody, V domains shown) VH: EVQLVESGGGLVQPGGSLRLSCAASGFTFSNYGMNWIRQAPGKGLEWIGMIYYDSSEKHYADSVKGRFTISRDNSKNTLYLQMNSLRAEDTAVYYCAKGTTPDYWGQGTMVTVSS VL: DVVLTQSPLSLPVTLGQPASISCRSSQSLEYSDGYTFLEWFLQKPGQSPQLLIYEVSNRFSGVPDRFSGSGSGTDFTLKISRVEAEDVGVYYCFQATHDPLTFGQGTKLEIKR
2. humanized antibody h5F9.23 (antibody, V domains shown) VH: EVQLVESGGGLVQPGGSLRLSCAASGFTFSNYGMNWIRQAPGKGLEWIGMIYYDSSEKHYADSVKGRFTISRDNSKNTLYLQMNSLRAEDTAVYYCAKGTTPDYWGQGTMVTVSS VL: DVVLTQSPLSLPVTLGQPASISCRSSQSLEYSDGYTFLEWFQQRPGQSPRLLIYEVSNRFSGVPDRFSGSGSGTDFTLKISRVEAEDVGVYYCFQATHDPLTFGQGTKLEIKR

Result:
5.78
4.37
